pIC50, Phospholipase A2, membrane associated (Homo sapiens, UniProt P14555): measured values
By convention, pIC50 is the negative base-10 log of a molar concentration.

Some compounds with recorded pIC50:
{"columns": ["Line notation", "Test result"],
 "data": [
  ["CC(=O)Nc1ccccc1CCCCCCC(=O)N[C@@H](CCC(=O)O)Cc1ccc(OCc2ccccc2)cc1", 5.39],
  ["CCCCCCCOc1ccc(C[C@H](CCC(=O)O)NC(=O)CCCCCCc2ccccc2)cc1", 7.07],
  ["O=C(O)CC[C@@H](Cc1ccc(OC/C=C/c2ccccc2)cc1)NC(=O)CCCCCCc1ccccc1", 6.94]
]}

Attention now turns to another entry.
Qu. Give pIC50 only, for O=C(O)CC[C@@H](Cc1ccc(OCc2ccccc2)cc1)NC(=O)CCCCCCc1cccc([N+](=O)[O-])c1 , using Phospholipase A2, membrane associated (Homo sapiens, UniProt P14555) data.
Ans. 6.27
